Quick list: MIC per entry.
- System: Acinetobacter baumannii
- Protocol Text: Antibacterial activity against Acinetobacter baumannii assessed as inhibition of bacterial growth by two fold serial dilution method
- Type: functional
Assay Readout: MIC

INSERT INTO assay_data (compound, assay_readout, value_observed) VALUES
  ('CCCCc1nc(Cl)c(C2NC(=O)NC(C)=C2C(=O)OCC)n1Cc1cccc(Cl)c1 (centres undefined)', 'MIC', '32 µg/mL'),
  ('CCCCc1nc(Cl)c(C2NC(=O)NC(C)=C2C(=O)OCC)n1Cc1ccccc1Cl (centres undefined)', 'MIC', '32 µg/mL'),
  ('CCCCc1nc(Cl)c(C2NC(=O)NC(C)=C2C(=O)OCC)n1CCF (centres undefined)', 'MIC', '64 µg/mL'),
  ('CCn1cc(C(=O)O)c(=O)c2cc(F)c(N3CCNCC3)cc21', 'MIC', '8 µg/mL');

* * *

- Tested on: Pseudomonas aeruginosa
- Protocol Text: Antibacterial activity against Pseudomonas aeruginosa assessed as inhibition of bacterial growth by two fold serial dilution method
- Assay type: functional
Assay Readout: MIC

INSERT INTO results (molecule, assay_readout, value_observed) VALUES
  ('CCCCc1nc(Cl)c(C2NC(=O)NC(C)=C2C(=O)OCC)n1Cc1ccc(F)cc1 (stereo unspecified)', 'MIC', '32 µg/mL'),
  ('CCCCc1nc(Cl)c(C2NC(=O)NC(C)=C2C(=O)OCC)n1CC (stereo unspecified)', 'MIC', '64 µg/mL'),
  ('CCCCc1nc(Cl)c(C2NC(=O)NC(C)=C2C(=O)OCC)n1CCN1CCOCC1 (stereo unspecified)', 'MIC', '256 µg/mL'),
  ('CCCCc1nc(Cl)c(C2NC(=O)NC(C)=C2C(=O)OCC)n1C (stereo unspecified)', 'MIC', '64 µg/mL'),
  ('CCCCc1nc(Cl)c(C2NC(=O)NC(CNS(=O)(=O)c3ccc(N)cc3)=C2C(=O)OCC)[nH]1 (stereo unspecified)', 'MIC', '256 µg/mL'),
  ('CCCCc1nc(Cl)c(C2NC(=O)NC(CN(c3cc(C)no3)S(=O)(=O)c3ccc(N)cc3)=C2C(=O)OCC)[nH]1 (stereo unspecified)', 'MIC', '4 µg/mL'),
  ('CCCCc1nc(Cl)c(C2NC(=O)NC(C)=C2C(=O)OCC)n1S(=O)(=O)c1ccc(F)cc1 (stereo unspecified)', 'MIC', '32 µg/mL'),
  ('CCn1cc(C(=O)O)c(=O)c2cc(F)c(N3CCNCC3)cc21', 'MIC', '2 µg/mL'),
  ('CCCCc1nc(Cl)c(C2NC(=O)NC(C)=C2C(=O)OCC)n1S(=O)(=O)c1cccc(Cl)c1 (stereo unspecified)', 'MIC', '128 µg/mL'),
  ('CCCCc1nc(Cl)c(C2NC(=O)NC(C)=C2C(=O)OCC)n1Cc1cccc(Cl)c1 (stereo unspecified)', 'MIC', '128 µg/mL'),
  ('CCCCc1nc(Cl)c(C2NC(=O)NC(C)=C2C(=O)OCC)n1S(=O)(=O)c1ccc(C(C)(C)C)cc1 (stereo unspecified)', 'MIC', '256 µg/mL'),
  ('CCCCc1nc(Cl)c(C2NC(=O)NC(C)=C2C(=O)OCC)n1Cc1ccc(Cl)c(Cl)c1 (stereo unspecified)', 'MIC', '128 µg/mL'),
  ('CCCCc1nc(Cl)c(C2NC(=O)NC(C)=C2C(=O)OCC)n1CC(=O)N1CCOCC1 (stereo unspecified)', 'MIC', '64 µg/mL'),
  ('C=CCn1c(CCCC)nc(Cl)c1C1NC(=O)NC(C)=C1C(=O)OCC (stereo unspecified)', 'MIC', '64 µg/mL'),
  ('CCCCc1nc(Cl)c(C2NC(=O)NC(C)=C2C(=O)OCC)n1S(=O)(=O)c1cccc(Br)c1 (stereo unspecified)', 'MIC', '32 µg/mL'),
  ('CCCCc1nc(Cl)c(C2NC(=O)NC(C)=C2C(=O)OCC)n1Cc1ccccc1Cl (stereo unspecified)', 'MIC', '64 µg/mL');
